The measurements presented in this section are drawn from ChEMBL document CHEMBL2434825.

test: Cytotoxicity against BHK cells transfected with HCV NS5B RdRp assessed as cell viability at 100 uM after 42 hrs by luciferase reporter gene assay; assay type: cell-based, Mesocricetus auratus; conditions: hamster, read-out: Activity
Reported Property: viability at 42 h, 100 µM

Examples with their reported viability at 42 h, 100 µM follow.
O=C1N/C(=N\c2nnc(-c3ccc(F)cc3)s2)S/C1=C\c1ccccc1Cl 11.4%
Nc1nnc(-c2ccc(Cl)cc2)s1 28.6%
O=C1CS/C(=N/c2nnc(-c3ccc(Cl)cc3)s2)N1 15.2%
O=C1N/C(=N\c2nnc(-c3ccc(Cl)cc3)s2)S/C1=C\c1ccc(Cl)cc1Cl 0%

Q) Record request: viability at 42 h, 100 µM value, item O=C1N/C(=N\c2nnc(-c3ccc(Cl)cc3)s2)S/C1=C\c1ccccc1F
A) 12.8%

----------
tested on: Hepacivirus hominis; assay: Inhibition of HCV NS5BCdelta21 RdRp activity at 100 uM after 1 hr by liquid scintillation counting analysis in presence of [alpha-32P]UTP relative to control
This listing pairs compounds with measured inhibition.
Be sure to follow the number with its unit.

Below, each entry is followed by its recorded inhibition result.
O=C1N/C(=N\c2nnc(-c3ccc(Cl)cc3)s2)S/C1=C\c1cccc(F)c1 65.5%
O=C1N/C(=N\c2nnc(-c3ccc(F)cc3)s2)S/C1=C\c1cccc(F)c1 72%
COc1cccc(OC)c1/C=C1\S/C(=N/c2nnc(-c3ccc(F)cc3)s2)NC1=O 19.7%
O=C(CCl)Nc1nnc(-c2ccc(Cl)cc2)s1 20%
O=C1N/C(=N\c2nnc(-c3ccc(Cl)cc3)s2)S/C1=C\c1ccccc1Cl 73.6%
O=C1N/C(=N\c2nnc(-c3ccc(Cl)cc3)s2)S/C1=C\c1ccccc1F 56.2%
O=C1N/C(=N\c2nnc(-c3ccc(F)cc3)s2)S/C1=C\c1ccccc1Cl 53.9%
Nc1nnc(-c2ccc(Cl)cc2)s1 16.8%
O=C1N/C(=N\c2nnc(-c3ccc(F)cc3)s2)S/C1=C\c1ccc(Cl)cc1Cl 11.5%
Nc1nnc(-c2ccc(F)cc2)s1 15.4%

Consider now this further compound.
Q) Recorded inhibition for O=C(CCl)Nc1nnc(-c2ccc(F)cc2)s1 , please?
A) 16%

----------
Collected viability at 42 h, 100 µM values appear next to each entry.
test: Cytotoxicity against human Huh7.5 cells assessed as cell viability at 100 uM after 42 hrs by MTS assay; format: cell-based, Huh-7; settings: read-out: Activity
The reply should be a number in %, with the unit left off.

A selection of reference data follows.
Nc1nnc(-c2ccc(F)cc2)s1 18.6
O=C1N/C(=N\c2nnc(-c3ccc(Cl)cc3)s2)S/C1=C\c1c(F)cccc1Cl 0
O=C1N/C(=N\c2nnc(-c3ccc(F)cc3)s2)S/C1=C\c1ccc([N+](=O)[O-])cc1 13.9

Q) Look up viability at 42 h, 100 µM for this compound: O=C1CS/C(=N/c2nnc(-c3ccc(Cl)cc3)s2)N1
A) 13.3

Q) GET /values?readout=viability at 42 h, 100 µM&item= O=C1N/C(=N\c2nnc(-c3ccc(F)cc3)s2)S/C1=C\c1ccccc1Cl
A) 15.6

Q) What value of measured viability at 42 h, 100 µM is listed for O=C1CS/C(=N/c2nnc(-c3ccc(F)cc3)s2)N1 ?
A) 14

Q) So what does the record say about viability at 42 h, 100 µM for O=C(CCl)Nc1nnc(-c2ccc(Cl)cc2)s1 ?
A) 81.9

----------
assay: Cytotoxicity against BHK cells transfected with HCV NS5B RdRp assessed as cell viability at 100 uM after 42 hrs by luciferase reporter gene assay; type: cell-based, Mesocricetus auratus; conditions: hamster, read-out: Activity
Reported Property: viability at 42 h, 100 µM (%)
Record the value in %, omitting the unit from your answer.

Consider the following illustrative entries.
O=C1N/C(=N\c2nnc(-c3ccc(Cl)cc3)s2)S/C1=C\c1c(Cl)cccc1Cl 94.9
O=C1N/C(=N\c2nnc(-c3ccc(Cl)cc3)s2)S/C1=C\c1ccc(F)cc1 73.1
O=C1N/C(=N\c2nnc(-c3ccc(Cl)cc3)s2)S/C1=C\c1c(F)cccc1Cl 0
O=C1N/C(=N\c2nnc(-c3ccc(Cl)cc3)s2)S/C1=C\c1ccccc1Cl 0

Okay, now this compound:
Q) For the compound shown here, O=C(CCl)Nc1nnc(-c2ccc(Cl)cc2)s1 , give the reported viability at 42 h, 100 µM.
A) 98.9

----------
system: Hepatitis C virus; assay: Antiviral activity against Hepatitis C virus subtype 2a infected in human Huh7.5 cells assessed as inhibition of viral RNA replication at 100 uM after 42 hrs by […] assay relative to control; assay type: functional, Hepacivirus hominis; settings: genotype 2a, Huh-7, 42 h
Class Fulfilled: inhibition at 100 µM at least 90%. Class Not fulfilled: inhibition at 100 µM below 90%.

COc1cccc(OC)c1/C=C1\S/C(=N/c2nnc(-c3ccc(F)cc3)s2)NC1=O Fulfilled
O=C1CS/C(=N/c2nnc(-c3ccc(F)cc3)s2)N1 Not fulfilled
O=C1N/C(=N\c2nnc(-c3ccc(Cl)cc3)s2)S/C1=C\c1ccccc1F Fulfilled
O=C1N/C(=N\c2nnc(-c3ccc(F)cc3)s2)S/C1=C\c1ccc([N+](=O)[O-])cc1 Not fulfilled
O=C1N/C(=N\c2nnc(-c3ccc(F)cc3)s2)S/C1=C\c1ccccc1F Fulfilled
O=C1N/C(=N\c2nnc(-c3ccc(F)cc3)s2)S/C1=C\c1ccc(Cl)cc1Cl Not fulfilled
O=C1N/C(=N\c2nnc(-c3ccc(F)cc3)s2)S/C1=C\c1ccccc1Cl Fulfilled
Nc1nnc(-c2ccc(Cl)cc2)s1 Not fulfilled

Q) Exam item: decide whether the reported inhibition at 100 µM for O=C1N/C(=N\c2nnc(-c3ccc(F)cc3)s2)S/C1=C\c1c(Cl)cccc1Cl is at least 90%.
A) Fulfilled

Q) Decide: is the reported value of inhibition at 100 µM for O=C1N/C(=N\c2nnc(-c3ccc(F)cc3)s2)S/C1=C\c1cccc(F)c1 equal to or greater than 90%?
A) Fulfilled

Q) Could you verify whether the entry COc1cccc(OC)c1/C=C1\S/C(=N/c2nnc(-c3ccc(Cl)cc3)s2)NC1=O shows inhibition at 100 µM of no less than 90%?
A) Fulfilled

----------
assay: Cytotoxicity against human Huh7.5 cells assessed as cell viability at 100 uM after 42 hrs by MTS assay; type: cell-based, Huh-7; details: read-out: Activity
viability at 42 h, 100 µM by entry:
Report as a plain number; the unit % is understood.

O=C1N/C(=N\c2nnc(-c3ccc(F)cc3)s2)S/C1=C\c1c(Cl)cccc1Cl 73.2
O=C1N/C(=N\c2nnc(-c3ccc(Cl)cc3)s2)S/C1=C\c1cccc(F)c1 60.3

Q) Returns the measured viability at 42 h, 100 µM for the input molecule. Input: COc1cccc(OC)c1/C=C1\S/C(=N/c2nnc(-c3ccc(Cl)cc3)s2)NC1=O
A) 80.4

Q) Consider the molecule shown here: COc1cccc(OC)c1/C=C1\S/C(=N/c2nnc(-c3ccc(F)cc3)s2)NC1=O What is its recorded viability at 42 h, 100 µM?
A) 63

Q) // returns reported viability at 42 h, 100 µM for input O=C1N/C(=N\c2nnc(-c3ccc(F)cc3)s2)S/C1=C\c1ccc(Cl)cc1Cl
A) 4.2

Q) Given O=C1N/C(=N\c2nnc(-c3ccc(Cl)cc3)s2)S/C1=C\c1ccccc1Cl , state its recorded viability at 42 h, 100 µM.
A) 0

Q) Using the record for O=C1N/C(=N\c2nnc(-c3ccc(Cl)cc3)s2)S/C1=C\c1ccc(Cl)cc1Cl , report its viability at 42 h, 100 µM.
A) 0

Q) GET /values?readout=viability at 42 h, 100 µM&item= O=C1N/C(=N\c2nnc(-c3ccc(F)cc3)s2)S/C1=C\c1cccc(F)c1
A) 59.7

Q) // viability at 42 h, 100 µM lookup, key: Nc1nnc(-c2ccc(Cl)cc2)s1
A) 32.4

Q) Would you kindly share the measured viability at 42 h, 100 µM for O=C1N/C(=N\c2nnc(-c3ccc(Cl)cc3)s2)S/C1=C\c1ccccc1F ?
A) 13.1

Q) # query: viability at 42 h, 100 µM of entry O=C1N/C(=N\c2nnc(-c3ccc(F)cc3)s2)S/C1=C\c1c(F)cccc1Cl
A) 74.6

Q) Give its viability at 42 h, 100 µM value. Item: O=C1N/C(=N\c2nnc(-c3ccc(F)cc3)s2)S/C1=C\c1ccccc1F
A) 59.9

Q) May I ask what viability at 42 h, 100 µM has been recorded for O=C(CCl)Nc1nnc(-c2ccc(F)cc2)s1 ?
A) 84.8

Q) What does the data say about its viability at 42 h, 100 µM? Entry: O=C1N/C(=N\c2nnc(-c3ccc(Cl)cc3)s2)S/C1=C\c1c(Cl)cccc1Cl
A) 76

Q) Query (molecule): O=C1N/C(=N\c2nnc(-c3ccc(Cl)cc3)s2)S/C1=C\c1ccc(F)cc1 ; field requested: viability at 42 h, 100 µM
A) 64.2
